Taken from paper PMC8392382.

- TARGET OF ASSAY: human isomaltase (Homo sapiens, UniProt P14410)
- Construct: an in vitro assay using Caco-2/TC7 cell extracts containing sucrase, maltase and isomaltase was conducted; endogenous in cells
- Sequence (P14410 whole entry): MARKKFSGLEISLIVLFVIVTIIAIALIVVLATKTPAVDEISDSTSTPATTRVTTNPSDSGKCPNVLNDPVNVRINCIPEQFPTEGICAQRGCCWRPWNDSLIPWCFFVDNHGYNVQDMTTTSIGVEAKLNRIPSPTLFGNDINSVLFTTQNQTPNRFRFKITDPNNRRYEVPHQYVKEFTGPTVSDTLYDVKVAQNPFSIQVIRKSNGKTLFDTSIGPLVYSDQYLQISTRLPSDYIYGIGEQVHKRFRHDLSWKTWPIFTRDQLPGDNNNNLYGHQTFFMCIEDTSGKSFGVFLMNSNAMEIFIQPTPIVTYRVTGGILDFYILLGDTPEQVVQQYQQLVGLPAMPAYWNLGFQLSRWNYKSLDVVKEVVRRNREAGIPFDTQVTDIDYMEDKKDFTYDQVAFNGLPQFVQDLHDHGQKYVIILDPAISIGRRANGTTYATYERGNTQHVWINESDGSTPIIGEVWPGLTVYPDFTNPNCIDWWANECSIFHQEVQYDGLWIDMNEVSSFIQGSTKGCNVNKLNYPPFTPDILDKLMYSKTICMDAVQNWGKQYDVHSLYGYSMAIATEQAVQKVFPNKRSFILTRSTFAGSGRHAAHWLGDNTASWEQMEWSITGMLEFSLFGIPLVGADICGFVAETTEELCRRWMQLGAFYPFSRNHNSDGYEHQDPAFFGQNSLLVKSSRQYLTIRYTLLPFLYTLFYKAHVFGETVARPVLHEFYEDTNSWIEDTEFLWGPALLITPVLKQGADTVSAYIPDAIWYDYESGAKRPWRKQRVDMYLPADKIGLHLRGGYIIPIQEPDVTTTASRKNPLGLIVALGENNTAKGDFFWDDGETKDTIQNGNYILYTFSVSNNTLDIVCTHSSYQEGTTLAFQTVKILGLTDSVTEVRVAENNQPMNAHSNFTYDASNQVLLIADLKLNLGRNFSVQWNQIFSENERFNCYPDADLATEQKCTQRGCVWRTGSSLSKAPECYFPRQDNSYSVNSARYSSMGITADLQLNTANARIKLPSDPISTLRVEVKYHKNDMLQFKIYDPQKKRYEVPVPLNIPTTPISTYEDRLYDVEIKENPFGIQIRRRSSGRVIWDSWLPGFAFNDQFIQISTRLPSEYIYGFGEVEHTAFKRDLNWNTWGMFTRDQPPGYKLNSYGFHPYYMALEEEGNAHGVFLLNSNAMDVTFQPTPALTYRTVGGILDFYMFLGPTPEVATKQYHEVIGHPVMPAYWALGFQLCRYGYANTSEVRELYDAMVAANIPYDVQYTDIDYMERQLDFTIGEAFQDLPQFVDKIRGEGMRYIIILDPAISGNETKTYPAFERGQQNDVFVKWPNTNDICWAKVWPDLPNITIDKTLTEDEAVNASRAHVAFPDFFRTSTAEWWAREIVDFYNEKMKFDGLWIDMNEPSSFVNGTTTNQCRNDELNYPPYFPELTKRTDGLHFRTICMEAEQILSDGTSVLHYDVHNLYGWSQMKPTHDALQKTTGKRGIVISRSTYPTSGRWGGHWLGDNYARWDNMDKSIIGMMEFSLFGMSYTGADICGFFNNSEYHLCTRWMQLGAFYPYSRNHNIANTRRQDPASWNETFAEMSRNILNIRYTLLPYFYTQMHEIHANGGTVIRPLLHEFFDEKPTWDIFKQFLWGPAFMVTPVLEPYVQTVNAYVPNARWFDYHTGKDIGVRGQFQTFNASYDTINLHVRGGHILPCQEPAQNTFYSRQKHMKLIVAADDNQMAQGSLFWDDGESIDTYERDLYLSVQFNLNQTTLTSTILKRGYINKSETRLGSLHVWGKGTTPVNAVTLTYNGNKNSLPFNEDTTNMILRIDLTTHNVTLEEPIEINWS
- METHOD NOTES: Isomaltase inhibition in Caco-2/TC7 cell-free extract, isomaltose as substrate, HPAE-PAD
- CONDITION DETAILS: Caco-2/TC7 CFE, 20 mM isomaltose, 10 min 37 °C; mean ± SEM, n = 3; read-out: 50% inhibitory concentration (IC50) Isomaltase
QUANTITY KIND: pIC50
By convention, pIC50 is the negative base-10 log of a molar concentration.

Prompt line: Quick check: pIC50 of O=C(O[C@@H]1Cc2c(O)cc(O)cc2O[C@@H]1c1cc(O)c(O)c(O)c1)c1cc(O)c(O)c(O)c1 [EGCG, (−)-epigallocatechin-3-gallate, reference compound] ?
Response line: 3.34

====

25% inhibitory concentration (IC25) Maltase for assorted molecules
- System: human maltase
- METHOD NOTES: Maltase inhibition in Caco-2/TC7 cell-free extract, maltose as substrate, HPAE-PAD
- Type: biochemical
- CONDITION DETAILS: Caco-2/TC7 CFE, maltose; mean ± SEM, n = 3
Marks after values point to notes of the source that are not given here.

>>> result("O=c1c(O)c(-c2ccccc2)oc2cc(O)cc(O)c12")
"17.6 ± 2.2 ^a µM"
>>> result("O=C(O[C@@H]1Cc2c(O)cc(O)cc2O[C@@H]1c1cc(O)c(O)c(O)c1)c1cc(O)c(O)c(O)c1 [EGCG, (−)-epigallocatechin-3-gallate, reference compound]")
"43.8 ± 9.2 ^b µM"
>>> result("O=c1c(O)c(-c2ccc(O)c(O)c2)oc2cc(O)cc(O)c12")
"82.0 ± 4.6 ^c µM"
>>> result("O=c1c(O)c(-c2ccc(O)c(O)c2)oc2cc(O)c(O)c(O)c12")
"6.7 ± 1.5 ^a µM"

Prompt line: Fill blank: measured 25% inhibitory concentration (IC25) Maltase of the molecule C[C@H]1O[C@H](O[C@H]2[C@H](O)[C@@H](O)[C@@H](O[C@H]3[C@H](O)[C@@H](O)C(O)O[C@@H]3CO)O[C@@H]2CO)[C@H](O)[C@@H](O)[C@@H]1N[C@H]1C=C(CO)[C@@H](O)[C@H](O)[C@H]1O (some centres unmarked) [Acarbose, acarbose, reference compound] is ____.
Response line: 4.6 ± 0.8 ^a µM

====

- TARGET OF ASSAY: human sucrase (Homo sapiens, UniProt P14410)
- Construct: an in vitro assay using Caco-2/TC7 cell extracts containing sucrase, maltase and isomaltase was conducted; endogenous in cells; host or cells: Caco-2/TC7 (human colon adenocarcinoma), 21 days post-confluence, crude cell-free extract
- Sequence (P14410 whole entry): as above
- METHOD NOTES: Sucrase inhibition in Caco-2/TC7 cell-free extract, sucrose as substrate, HPAE-PAD
- Format: biochemical
- CONDITION DETAILS: maximum concentration: acarbose 200, EGCG 1500, quercetin 200, quercetagetin 50, kaempferol 40, galangin 25 µM
QUANTITY KIND: percent inhibition of sucrase at maximum concentration tested

>>> result("O=c1c(O)c(-c2ccc(O)c(O)c2)oc2cc(O)c(O)c(O)c12 [Quercetagetin, quercetagetin]")
"> 50%"
>>> result("O=c1c(O)c(-c2ccc(O)c(O)c2)oc2cc(O)cc(O)c12 [Quercetin, quercetin]")
"> 50%"

Note: attention shifts to another entry.
Prompt line: Dear colleague, I am looking for the recorded percent inhibition of sucrase at maximum concentration tested of the following compound: O=C(O[C@@H]1Cc2c(O)cc(O)cc2O[C@@H]1c1cc(O)c(O)c(O)c1)c1cc(O)c(O)c(O)c1 [EGCG, (−)-epigallocatechin-3-gallate, reference compound]
Response line: 100%
